test: qHTS RealTime-Glo MT Cell Viability Assay in HEK293 cells - 8 hour (AID 1224887); conditions: RealTime-Glo luminescence; series mostly up to 76.8 µM; note: nearly all actives have a fitted effect of over 50% in size
Records with an inconclusive call do not appear. Activity calls are given as the source filed them. Calls come from the whole dose curve; as a rule, active = well fitted cell-killing curve with a large enough effect in the repeat runs; inconclusive = weak or mixed curves, or effect the other way; inactive = flat fitted curve, though single readings scatter.
Outcome codes: active, inactive

Molecule	Assigned Label
C=Cc1cccc(CCl)c1	inactive
CCN(CC)Cc1nccn1-c1ccc([N+](=O)[O-])cc1C(=O)c1ccccc1Cl	inactive
ClC1=C(Cl)[C@]2(Cl)[C@@H]3[C@H]4C[C@H]([C@@H]5O[C@H]45)[C@@H]3[C@@]1(Cl)C2(Cl)Cl	inactive
CSC1=N[C@@](C)(c2ccccc2)C(=O)N1Nc1ccccc1	inactive
[Cl][Hg][c]1ccccc1	active
Clc1ccc(C(Cl)(Cl)Cl)cc1Cl	active
CC[C@H](C)[C@H]1O[C@]2(C=C[C@@H]1C)C[C@@H]1C[C@@H](C/C=C(\C)[C@@H](O[C@H]3C[C@H](OC)[C@@H](O[C@H]4C[C@H](OC)[C@@H](NC)[C@H](C)O4)[C@H](C)O3)[C@@H](C)/C=C/C=C3\CO[C@@H]4[C@H](O)C(C)=C[C@@H](C(=O)O1)[C@]34O)O2	active
COc1cnc(OC)n2nc(NS(=O)(=O)c3c(OCC(F)F)cccc3C(F)(F)F)nc12	inactive
CCC(C)Br (stereo not given)	inactive
C=CCBr	inactive

----------
test: qHTS assay to identify small molecule agonists of the hypoxia (HIF-1) signaling pathway - cell viability counter screen (AID 1224844); conditions: HRE-bla ME-180 viability, CellTiter-Glo luminescence, 17 h; series mostly up to 76.8 µM; note: nearly all actives have a fitted effect of over 50% in size; note: potency is the fitted concentration of half-maximal effect
Records with an inconclusive call do not appear. Calls of active or inactive are those of the source. The call rests on the fitted dose curve.

Smiles	Potency
Oc1ccc2[nH]cc(CCCCN3CC=C(c4ccccc4)CC3)c2c1	inactive
COP(=O)(OC)Oc1ccc([N+](=O)[O-])cc1	inactive
CNC(=O)CSP(=O)(OC)OC	inactive
Fc1ccc(C(OCCN2CCN(CCCc3ccccc3)CC2)c2ccc(F)cc2)cc1	16.9 µM (active)
O.O.O.O.O.O.O.O=S(=O)([O-])[O-].[Co+2]	inactive
CCN(CC)CCN1C(=O)CN=C(c2ccccc2F)c2cc(Cl)ccc21	inactive
CCCCCON=O	inactive
CCc1cccc(C)c1N(C(=O)CCl)[C@@H](C)COC	49 µM (active)
COC(=O)c1cc(Oc2ccc(Cl)cc2Cl)ccc1[N+](=O)[O-]	inactive
Cc1ccc([N+](=O)[O-])[c]2c1[O][Hg]2	2.13 µM (active)
COP(=O)(OC)O/C(=C\Cl)c1cc(Cl)c(Cl)cc1Cl	inactive
[F][Sn]([c]1ccccc1)([c]1ccccc1)[c]1ccccc1	0.549 µM (active)

----------
molecular target: Acetylcholinesterase (Homo sapiens); experiment: Acetylcholinesterase (AChE) small molecule antagonists: colormetric cell-based qHTS assay (AID 1347395); conditions: SH-SY5Y cells AChE activity, colorimetric (Ellman); series mostly up to 115 µM; note: nearly all actives have a fitted effect of over 30% in size
Records with an inconclusive call do not appear. The source made the active and inactive calls. The call rests on the fitted dose curve.
Outcomes: true (1) for active, false (0) for inactive

Molecule	Assigned Label
COc1ccc2c3c1O[C@H]1[C@H](O)CC[C@H]4[C@@H](C2)N(C)CC[C@@]341	false (0)
CN1C2CCC(C)(C)C1CC(OC(=O)C(O)(c1cccs1)c1cccs1)C2 (stereo not given)	false (0)
O=S1(=O)OCC2C(CO1)C1(Cl)C(Cl)=C(Cl)C2(Cl)C1(Cl)Cl (stereo not given)	false (0)
O=[N+]([O-])c1cccc2cccc([N+](=O)[O-])c12	true (1)
COC(=O)c1ccccc1S(=O)(=O)NC(=O)Nc1nc(C)nc(OC)n1	false (0)
Cc1cnc2c(C(=O)O)c(Cl)ccc2c1	false (0)
Cc1ccc(C)c2ccccc12	false (0)
Brc1cccc(-c2ccccc2)c1	false (0)
CN1[C@@H]2CC[C@H]1CC(O)C2 (stereo not given in full)	false (0)
O=S(=O)(NS(=O)(=O)C(F)(F)F)C(F)(F)F	false (0)
ClC1=C(Cl)[C@]2(Cl)[C@H]3[C@H]([C@@H]4C=C[C@H]3C4)[C@@]1(Cl)C2(Cl)Cl	false (0)
Cc1cccc(Cc2cnc[nH]2)c1C	false (0)
O=C(N[C@@H]1N=C(c2ccccc2F)c2cccc3c2N(CC3)C1=O)c1cc2ccccc2[nH]1	false (0)
CC(=O)C(Cl)C(=O)N(C)C (stereo not given)	false (0)
CC(Cc1ccc(OCC(=O)O)cc1)NCC(O)c1csc(C(F)(F)F)n1 (stereo not given)	false (0)
C[C@]12Cc3cn[nH]c3C[C@@H]1CC[C@@H]1[C@@H]2CC[C@@]2(C)[C@H]1CC[C@]2(C)O	false (0)
O=c1[nH]c(Cl)c(Cl)cc1Cl	false (0)
[O]=[Cr][O][Cr]=[O]	false (0)
CCCCC/C=C\C/C=C\C/C=C\C/C=C\CCCC(=O)NCC(=O)O	false (0)
Nc1ccc(Cl)cc1C(=O)c1ccccc1F	false (0)
c1csc(-c2ccc(-c3cccs3)s2)c1	false (0)
[O]=[Cr](=[O])([OH])[O][Cr](=[O])(=[O])[OH]	false (0)
COCCC#N	false (0)
Cc1ccccc1OP(=O)(Oc1ccccc1C)Oc1ccccc1C	false (0)
CC(C)(C)c1ccc(OP(=O)(Oc2ccccc2)Oc2ccccc2)cc1	true (1)

----------
assay: qHTS assay to identify small molecule agonists of the sonic hedgehog signaling (Shh) pathway (AID 1259368); details: NIH/3T3 Gli1-Luc reporter, luciferase, 24 h; series mostly up to 92.4 µM; note: nearly all actives have a fitted effect of over 15% in size
Activity calls are given as the source filed them. Calls follow the shape of the full dose curve.
Possible outcomes: active, inactive

Compound	Assigned Label
COC(=O)c1cc(Oc2ccc(Cl)cc2Cl)ccc1[N+](=O)[O-]	inactive
Clc1ccc(C2(Cn3cncn3)OCCO2)c(Cl)c1	inactive
CC(C)=CCN1CC[C@@]2(C)c3cc(O)ccc3C[C@@H]1[C@@H]2C	inactive
Oc1cc(Cl)cc(Cl)c1	inactive
O=c1c2ccccc2c(=O)c2c1cc(Cl)c1[nH]c3c([nH]c12)c(Cl)cc1c(=O)c2ccccc2c(=O)c13	inactive
CC(C)NCC(O)c1ccccc1Cl (stereo unspecified)	inactive
CC(=O)[O][Sn]([c]1ccccc1)([c]1ccccc1)[c]1ccccc1	inactive
Nc1ccc(Cl)cc1C(=O)c1ccccc1F	inactive
O.O.O.O.O.O.O.O=S(=O)([O-])[O-].[Co+2]	active
Cc1cc2c3c(c1)C(c1ccccc1)=N[C@@H](NC(=O)c1ccncc1)C(=O)N3CC2	inactive
CCO/N=C(\CC)C1=C(O)CC(c2c(C)cc(C)cc2C)CC1=O (stereo unspecified)	inactive

----------
Biological target: Thyrotropin-releasing hormone receptor (Homo sapiens) (UniProt P34981)
Sequence (P34981 whole entry, looked up): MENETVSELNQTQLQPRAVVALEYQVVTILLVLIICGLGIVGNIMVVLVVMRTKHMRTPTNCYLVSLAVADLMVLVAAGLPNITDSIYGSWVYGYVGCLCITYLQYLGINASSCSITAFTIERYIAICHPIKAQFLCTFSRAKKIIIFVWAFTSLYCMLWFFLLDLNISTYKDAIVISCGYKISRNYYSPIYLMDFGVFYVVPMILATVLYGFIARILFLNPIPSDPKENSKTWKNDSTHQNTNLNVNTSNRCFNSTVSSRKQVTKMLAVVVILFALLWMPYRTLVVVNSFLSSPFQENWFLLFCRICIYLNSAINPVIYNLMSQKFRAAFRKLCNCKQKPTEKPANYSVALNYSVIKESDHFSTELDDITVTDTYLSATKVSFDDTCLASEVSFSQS
Experiment: qHTS assay to identify small molecule antagonists of the thyrotropin-releasing hormone receptor (TRHR) signaling pathway (AID 1346877); note: % is set by controls: 0 for no effect and ±100 for the full control effect
Conditions: TRHR-HEK293, TRH-induced calcium fluorescence, antagonist mode; series mostly up to 51.3 µM
Procedure: National Center for Advancing Translational Sciences [NCATS] NIH Chemical Genomics Center [NCGC] U.S. Environmental Protection Agency [EPA] National Institutes of Environmental Health Sciences [NIEHS] National Toxicology Program [NTP] […] The TRHR-Hek293 cells were dispensed at 1500cells/4uL/well in 1536-well black-clear bottom plates using a Multidrop dispenser. […] The fluorescence intensity in the plates was measured using FDSS 7000EX kinetic plate reader for 3 min at 1 sec intervals. […]
Active and inactive are the calls of the source. The call rests on the fitted dose curve; in most records, active means well fitted inhibition curve with a large enough effect in the repeat runs (not every such curve was filed as active); inconclusive means weak or mixed curves; inactive means flat fitted curve, though single readings scatter.

Compound	outcome
CCC(OC(C)=O)C(CC(C)NC)(c1ccccc1)c1ccccc1 (configuration not stated)	inactive
CCCCON=O	inactive
CC#C[C@]1(O)CC[C@H]2[C@@H]3C[C@H](C)C4=CC(=O)CC[C@]4(C)[C@H]3CC[C@@]21C	inactive
CSC(C)(C)/C=N/O	inactive
CCOP(=S)(OCC)Oc1cc(C)nc(N(CC)CC)n1	inactive
CN(C)c1ccc(N)cc1	inactive
COP(=S)(OC)Oc1nc(Cl)c(Cl)cc1Cl	inactive
c1ccc(Nc2ccc(Nc3ccccc3)cc2)cc1	inactive
CC(Cc1ccccc1)N(C)Cc1ccco1 (configuration not stated)	inactive
CCC1COC(Cn2cncn2)(c2ccc(Cl)cc2Cl)O1 (configuration not stated)	inactive
O=C1C[C@@H]2OCC=C3CN4CC[C@]56c7ccccc7N1[C@H]5[C@H]2[C@H]3C[C@H]46	inactive
CSC1=N[C@@](C)(c2ccccc2)C(=O)N1Nc1ccccc1	inactive

----------
assay: qHTS assay to test for compound auto fluorescence at 460 nm (blue) in HEK293 cells (AID 720678); settings: blue autofluorescence 405/460 nm; series mostly up to 91.3 µM; note: % is set by controls: 0 for no effect and ±100 for the full control effect
Calls of active or inactive are those of the source. The call rests on the fitted dose curve; in most records, active means well fitted curve in the direction sought with a large enough effect in the repeat runs; inconclusive means weak or mixed curves; inactive means flat fitted curve, though single readings scatter.

Compound	fluorescence, % of triamterene
N#Cc1sc2c(=O)c3ccccc3c(=O)c=2sc1C#N	inactive
CCC[CH2][Sn]([CH2]CCC)([CH2]CCC)[CH2]CCC	inactive
CC(C)(C)c1ccc(OP(=O)(Oc2ccccc2)Oc2ccccc2)cc1	inactive
CC(C)N(C(=O)SC/C(Cl)=C/Cl)C(C)C	inactive
CCC(C)c1cccc(C(C)CC)c1O (stereo not drawn)	inactive
COc1cnc(OC)n2nc(NS(=O)(=O)c3c(OCC(F)F)cccc3C(F)(F)F)nc12	inactive
ClC1=C(Cl)[C@]2(Cl)[C@H]3[C@H]([C@@H]4C=C[C@H]3C4)[C@@]1(Cl)C2(Cl)Cl	inactive
CCOC(=O)CCN(SN(C)C(=O)Oc1cccc2c1OC(C)(C)C2)C(C)C	inactive
C=CCOC(=O)c1ccccc1N	inactive
CC(O)C(=O)[O][Hg][c]1ccccc1 (stereo not drawn)	inactive
CCN(CC)C(=O)N[C@@H]1C=C2c3cccc4[nH]cc(c34)C[C@@H]2N(C)C1	inactive
CSC(C)(C)/C=N/O	inactive
COc1ccc2c(c1OC)C(=O)O[C@@H]2[C@H]1c2cc3c(cc2CCN1C)OCO3	inactive
COc1nc(C)nc(NC(=O)NS(=O)(=O)c2ccccc2Cl)n1	inactive
c1ccc(N=NNc2ccccc2)cc1	inactive
Brc1cccc(-c2ccccc2)c1	inactive
Cc1cc2c3c(c1)C(c1ccccc1)=N[C@@H](NC(=O)c1ccncc1)C(=O)N3CC2	inactive
C=CCBr	inactive
